# System: Trachea of guinea pig
# ASSAY_NOTES: Anticholinergic activity (ACh-contracted tracheal strip chain preparation)
# EXPERIMENTAL_SETUP: Cavia porcellus; preparation contracted by 10^-6 M of acetylcholine (ACh); cumulative addition; read-out: 50% inhibitory concentration (IC50) on ACh-induced contraction
Counter-ions that a name gives are not always drawn.
RECORDED_ENDPOINT: IC50 (nM)
Kindly answer with a numeric value in nM, unit omitted.

# COMPOUND, IC50 / nM
measured = [
    ("CCN(CC)Cc1cnc2n1C(c1cccc([N+](=O)[O-])c1)C(C(=O)OC)=C(C)N2 (stereo not drawn) [Compound A, hydrochloride]", 1600),
]

Quick note, IC50 for CCOC(=O)C1=C(C)Nc2ncc(CN(CC)CC)n2C1c1cccc([N+](=O)[O-])c1 (stereo not drawn) [Compound B, hydrochloride] landed at 4000

Quick note, IC50 for COC(=O)C1=C(C)Nc2ncc(CN3CCCC3)n2C1c1cccc([N+](=O)[O-])c1 (stereo not drawn) [Compound P, dihydrochloride] landed at 2300

----------
# System: coronary blood flow
# ASSAY_NOTES: Effect on coronary blood flow
# Format: in vivo, Adult mongrel dogs
# EXPERIMENTAL_SETUP: half-life measured as the duration of effects on coronary blood flow
RECORDED_ENDPOINT: T 1/2 (min)
Kindly answer with a numeric value in min, unit omitted.

These recorded examples may help you get a feel for the data.
# COMPOUND, UNIT_DESCRIPTOR, T 1/2
data = [
    ("CCOC(=O)C1=C(C)Nc2ncc(N(CC)CC)n2C1c1cccc([N+](=O)[O-])c1 (stereo not drawn)", "min", 1.0),
    ("CCOC(=O)C1=C(C)Nc2ncc(CN(CC)CC)n2C1c1ccccc1[N+](=O)[O-].Cl.Cl.O (stereo not drawn)", "min", 2.0),
    ("COC(=O)C1=C(C)Nc2ncc(COC(C)C)n2C1c1cccc([N+](=O)[O-])c1 (stereo not drawn)", "min", 1.0),
    ("CCOC(=O)C1=C(C)Nc2ncc([N+](=O)[O-])n2C1c1ccccc1C(F)(F)F (stereo not drawn)", "min", 1.0),
    ("CCOC(=O)C1=C(C)Nc2ncc(N3CCCC3)n2C1c1cccc([N+](=O)[O-])c1 (stereo not drawn)", "min", 1.3),
]

Quick note, T 1/2 for CCOCc1cnc2n1C(c1cccc([N+](=O)[O-])c1)C(C(=O)OCC)=C(C)N2 (stereo not drawn) landed at 1.0

----------
# System: coronary blood flow
# ASSAY_NOTES: Effect on coronary blood flow
# Format: in vivo, Adult mongrel dogs
# EXPERIMENTAL_SETUP: dose required to increase the coronary blood flow by a half of the effects of nifedipine; injected into the coronary artery; anesthetized dogs
Structures can show the parent of a compound that is named as a salt.
ED50 values for the molecules below.
Kindly answer with a numeric value in µg, unit omitted.

These recorded examples may help you get a feel for the data.
# MOLECULE, VALUE
data = [
    ("CCN(CC)Cc1cnc2n1C(c1cccc([N+](=O)[O-])c1)C(C(=O)OC)=C(C)N2 (centres unmarked) [Compound A, hydrochloride]", 2),
    ("CCOC(=O)C1=C(C)Nc2ncc(N3CCCC3)n2C1c1cccc([N+](=O)[O-])c1 (centres unmarked) [Compound D]", 8),
    ("CCCN(CCC)Cc1cnc2n1C(c1cccc([N+](=O)[O-])c1)C(C(=O)OC)=C(C)N2 (centres unmarked) [Compound H]", 7),
]

Quick note, ED50 for CCOCc1cnc2n1C(c1cccc([N+](=O)[O-])c1)C(C(=O)OCC)=C(C)N2 (centres unmarked) [Compound G] landed at 7

Quick note, ED50 for CCOC(=O)C1=C(C)Nc2ncc([N+](=O)[O-])n2C1c1ccccc1C(F)(F)F (centres unmarked) [Compound M] landed at 5

Quick note, ED50 for COC(=O)C1=C(C)Nc2ncc(COC(C)C)n2C1c1cccc([N+](=O)[O-])c1 (centres unmarked) [Compound L] landed at 5

Quick note, ED50 for COC(=O)C1=C(C)Nc2ncc(CN(C(C)C)C(C)C)n2C1c1cccc([N+](=O)[O-])c1 (centres unmarked) [Compound K] landed at 6

Quick note, ED50 for CCOC(=O)C1=C(C)Nc2ncc(N(CC)CC)n2C1c1cccc([N+](=O)[O-])c1 (centres unmarked) [Compound F] landed at 12

Recorded values, source patent EP0163240A2.
